All figures here come from paper PMC11837772.

- Experimental Details: Cytotoxicity assay
- Assay type: cell-based, human
- Experimental Context: human, THP-1 human monocytic cells, pH 7.4, Log CC50, THP-1 human monocytic cells, 72 h, MTT
Measure Name: CC50 at 72 h (µM)
One number for each entry, in µM.

| Compound | Recorded Number |
| --- | --- |
| CC/C(=C\c1ccc(OCC(=O)N[C@@H](Cc2ccccc2)C(=O)NCC(=O)OC)cc1)[N+](=O)[O-] [14i] | 5.15 |

Then there is this compound:
CC50 at 72 h reported for this compound CC/C(=C\c1ccc(OCC(=O)NC(Cc2ccccc2)C(=O)N2CCOCC2)cc1)[N+](=O)[O-] (centres unmarked) [14a] : 28.7
